Value source: patent US20180050993A1

# Assay Summary: Mouse liver microsomal stability
# Type: in vitro ADME
# Condition Notes: stability in pooled mouse (CD-1, male) liver microsomes 0.5 mg/ml, compound 1 μM, parent compound by LC/MS, in % (unit assumed)
Binary call on MLM (30 min) with cut-off 50: strictly below means fulfilled, and equality or higher means not fulfilled.

Example cases with answers are listed next.
>>> df
                                   compound  class_assignment
0  Fc1c(Cl)cccc1Nc1ncnc2cc(OCCOC(F)F)c(OCCOC(F)F)cc12 [2(Ff)]     not fulfilled
1  FC(F)OCCOc1cc2ncnc(Nc3ccccc3C(F)(F)F)c2cc1OCCOC(F)F [2(Ee)]         fulfilled
2  Fc1cc(F)c(Nc2ncnc3cc(OCCOC(F)F)c(OCCOC(F)F)cc23)c(F)c1 [2(Ll)]         fulfilled
3  Fc1ccccc1Nc1ncnc2cc(OCCOC(F)F)c(OCCOC(F)F)cc12 [2(Hh)]     not fulfilled

Alright, here's another compound for you.
Q. Find out if reported MLM (30 min) for Fc1c(Nc2ncnc3cc(OCCOC(F)F)c(OCCOC(F)F)cc23)ccc(Cl)c1Cl [2(a)] is less than 50
A. not fulfilled
